Data credit: ChEMBL document CHEMBL5346977

# Measurement protocol: Half-life in Sprague-Dawley rat at 20 mg/kg, po measured after 48 hrs by HPLC-MS/MS analysis
# Assay type: ADME, organism-based
# Condition parameters: in vivo
Attribute measured: half-life (h)

INSERT INTO results (molecule, observed) VALUES
  ('Cc1c(COc2cc(OCc3cccc(C#N)c3)c(CN3CCCCC3C(=O)NCCNC(=O)CCCC[C@@H]3SC[C@@H]4NC(=O)N[C@@H]43)cc2Cl)cccc1-c1ccccc1 (stereo partly specified)', 2.6);

---

# Measurement protocol: Drug concentration in plasma of C57BL/6 mouse implanted with mouse B16-F10 cells at 50 mg/kg, ip measured after 1 hrs by UPLC-MS/MS analysis
# Assay type: ADME, organism-based
Attribute measured: concentration at 1 h (ng/mL)

INSERT INTO measurements (compound, observed) VALUES
  ('Cc1c(COc2cc(OCc3cccc(C#N)c3)c(CN3CCCCC3C(=O)NCCNC(=O)CCCC[C@@H]3SC[C@@H]4NC(=O)N[C@@H]43)cc2Cl)cccc1-c1ccccc1 (stereo partly specified)', 1460);

---

# Target or system: Programmed cell death protein 1/Programmed cell death 1 ligand 1 (Homo sapiens) (UniProt Q15116+Q9NZQ7)
# Measurement protocol: Inhibition of GST-tagged PD-1 (unknown origin)/His-tagged PD-L1 (unknown origin) interaction at 10 nM by HTRF binding assay relative to control
# Format: protein-complex assay
Quick rule for you: inhibition at 10% or higher means Met, lower means Not met.

INSERT INTO measurements (molecule, class_name) VALUES
  ('Cc1c(COc2cc(OCc3cccc(C#N)c3)c(CNC(C)(C)C(=O)N3CCN(C(=O)CCCC[C@@H]4SC[C@@H]5NC(=O)N[C@@H]54)CC3)cc2Cl)cccc1-c1ccccc1', 'Met'),
  ('Cc1c(COc2cc(OCc3cccc(C#N)c3)c(CNC(C)(C)C(=O)NC3CCN(C(=O)CCCC[C@H]4SC[C@H]5NC(=O)N[C@H]54)CC3)cc2Cl)cccc1-c1ccc2c(c1)OCCO2', 'Not met'),
  ('Cc1c(COc2cc(OCc3cccc(C#N)c3)c(CNC(C)(C)C(=O)N3CCC(NC(=O)CCCC[C@@H]4SC[C@@H]5NC(=O)N[C@@H]54)CC3)cc2Cl)cccc1-c1ccccc1', 'Not met'),
  ('Cc1c(COc2cc(OCc3cccc(C#N)c3)c(CN3CCCCC3C(=O)N3CCC(NC(=O)CCCC[C@@H]4SC[C@@H]5NC(=O)N[C@@H]54)CC3)cc2Cl)cccc1-c1ccccc1 (stereo partly specified)', 'Met'),
  ('Cc1c(COc2cc(OCc3cccc(C#N)c3)c(CNC(C)(C)C(=O)N3CCC(NC(=O)CCCC[C@H]4SC[C@H]5NC(=O)N[C@H]54)CC3)cc2Cl)cccc1-c1ccc2c(c1)OCCO2', 'Not met'),
  ('Cc1c(COc2cc(OCc3cccc(C#N)c3)c(CN3CCCCC3C(=O)NC3CCN(C(=O)CCCC[C@H]4SC[C@H]5NC(=O)N[C@H]54)CC3)cc2Cl)cccc1-c1ccc2c(c1)OCCO2 (stereo partly specified)', 'Met'),
  ('Cc1c(COc2cc(OCc3cccc(C#N)c3)c(CN3CCCCC3C(=O)N3CCN(C(=O)CCCC[C@@H]4SC[C@@H]5NC(=O)N[C@@H]54)CC3)cc2Cl)cccc1-c1ccc2c(c1)OCCO2 (stereo partly specified)', 'Met'),
  ('Cc1c(COc2cc(OCc3cccc(C#N)c3)c(CN3CCCCC3C(=O)N(C)CCNC(=O)CCCC[C@@H]3SC[C@@H]4NC(=O)N[C@@H]43)cc2Cl)cccc1-c1ccccc1 (stereo partly specified)', 'Met'),
  ('Cc1c(COc2cc(OCc3cccc(C#N)c3)c(CN3CCCCC3C(=O)N(C)CCNC(=O)CCCC[C@@H]3SC[C@@H]4NC(=O)N[C@@H]43)cc2Cl)cccc1-c1ccc2c(c1)OCCO2 (stereo partly specified)', 'Met'),
  ('Cc1c(COc2cc(OCc3cccc(C#N)c3)c(CN3CCCCC3C(=O)N3CCC(NC(=O)CCCC[C@H]4SC[C@H]5NC(=O)N[C@H]54)CC3)cc2Cl)cccc1-c1ccc2c(c1)OCCO2 (stereo partly specified)', 'Met'),
  ('Cc1c(COc2cc(OCc3cccc(C#N)c3)c(CNC(C)(C)C(=O)NCCNC(=O)CCCC[C@@H]3SC[C@@H]4NC(=O)N[C@@H]43)cc2Cl)cccc1-c1ccccc1', 'Met');

---

# Measurement protocol: Drug concentration in brain of C57BL/6 mouse implanted with mouse B16-F10 cells at 50 mg/kg, ip measured after 2 hrs by UPLC-MS/MS analysis
# Assay type: ADME, organism-based
# Condition parameters: read-out: Ct
Attribute measured: concentration at 2 h (ng/mL)

INSERT INTO measurements (compound, unit_abbreviation, observed) VALUES
  ('Cc1c(COc2cc(OCc3cccc(C#N)c3)c(CN3CCCCC3C(=O)NCCNC(=O)CCCC[C@@H]3SC[C@@H]4NC(=O)N[C@@H]43)cc2Cl)cccc1-c1ccccc1 (stereo partly specified)', 'ng/mL', 4.2);

---

# Target or system: Programmed cell death protein 1/Programmed cell death 1 ligand 1 (Homo sapiens) (UniProt Q15116+Q9NZQ7)
# Measurement protocol: Inhibition of GST-tagged PD-1 (unknown origin)/His-tagged PD-L1 (unknown origin) interaction at 100 nM by HTRF binding assay relative to control
# Type: protein-complex assay
Listing of recorded inhibition by entry.
Attribute measured: inhibition

INSERT INTO assay_data (compound, observed) VALUES
  ('Cc1c(COc2cc(OCc3cccc(C#N)c3)c(CN3CCCCC3C(=O)NC3CCN(C(=O)CCCC[C@@H]4SC[C@@H]5NC(=O)N[C@@H]54)CC3)cc2Cl)cccc1-c1ccccc1 (stereo not given in full)', '99.2%'),
  ('Cc1c(COc2cc(OCc3cccc(C#N)c3)c(CN3CCCCC3C(=O)NC3CCN(C(=O)CCCC[C@H]4SC[C@H]5NC(=O)N[C@H]54)CC3)cc2Cl)cccc1-c1ccc2c(c1)OCCO2 (stereo not given in full)', '84.7%'),
  ('Cc1c(COc2cc(OCc3cccc(C#N)c3)c(CN3CCCCC3C(=O)N(C)CCNC(=O)CCCC[C@@H]3SC[C@@H]4NC(=O)N[C@@H]43)cc2Cl)cccc1-c1ccc2c(c1)OCCO2 (stereo not given in full)', '82.6%'),
  ('Cc1c(COc2cc(OCc3cccc(C#N)c3)c(CNC(C)(C)C(=O)NC3CCN(C(=O)CCCC[C@H]4SC[C@H]5NC(=O)N[C@H]54)CC3)cc2Cl)cccc1-c1ccccc1', '74.6%'),
  ('Cc1c(COc2cc(OCc3cccc(C#N)c3)c(CN3CCCCC3C(=O)N3CCC(NC(=O)CCCC[C@@H]4SC[C@@H]5NC(=O)N[C@@H]54)CC3)cc2Cl)cccc1-c1ccccc1 (stereo not given in full)', '97.2%');

---

# Measurement protocol: Drug concentration in liver of C57BL/6 mouse implanted with mouse B16-F10 cells at 50 mg/kg, ip measured after 4 hrs by UPLC-MS/MS analysis
# Type: ADME, organism-based
# Condition parameters: read-out: Ct
Attribute measured: concentration at 4 h (ng/mL)

INSERT INTO measurements (molecule, unit_abbreviation, observed) VALUES
  ('Cc1c(COc2cc(OCc3cccc(C#N)c3)c(CN3CCCCC3C(=O)NCCNC(=O)CCCC[C@@H]3SC[C@@H]4NC(=O)N[C@@H]43)cc2Cl)cccc1-c1ccccc1 (stereo partly specified)', 'ng/mL', 3650);

---

# Measurement protocol: Cmax in Sprague-Dawley rat at 20 mg/kg, po measured after 48 hrs by HPLC-MS/MS analysis
# Format: ADME, organism-based
# Design: dose 20 mg/kg, time 48 hrs, route po
# Condition parameters: in vivo
Attribute measured: Cmax (ng/mL)

INSERT INTO measurements (molecule, unit_abbreviation, observed) VALUES
  ('Cc1c(COc2cc(OCc3cccc(C#N)c3)c(CN3CCCCC3C(=O)NCCNC(=O)CCCC[C@@H]3SC[C@@H]4NC(=O)N[C@@H]43)cc2Cl)cccc1-c1ccccc1 (stereo partly specified)', 'ng/mL', 177);

---

# Measurement protocol: MRT (0 to infinity) in Sprague-Dawley rat at 20 mg/kg, po measured after 48 hrs by HPLC-MS/MS analysis
# Assay type: ADME, organism-based
# Condition parameters: in vivo
Attribute measured: MRT inf (h)

INSERT INTO assay_data (compound, observed) VALUES
  ('Cc1c(COc2cc(OCc3cccc(C#N)c3)c(CN3CCCCC3C(=O)NCCNC(=O)CCCC[C@@H]3SC[C@@H]4NC(=O)N[C@@H]43)cc2Cl)cccc1-c1ccccc1 (stereo partly specified)', 7.1);

---

# Measurement protocol: AUC (0 to infinity) in Sprague-Dawley rat at 1 mg/kg, iv administered as single dose and measured after 48 hrs by HPLC-MS/MS analysis
# Assay type: ADME, organism-based
# Parameters: dose 1 mg/kg, time 48 hrs, route iv
# Condition parameters: in vivo
Listing of recorded AUC by entry.
Attribute measured: AUC (ng·h/mL)

INSERT INTO results (molecule, attribute_measured, observed) VALUES
  ('Cc1c(COc2cc(OCc3cccc(C#N)c3)c(CN3CCCCC3C(=O)NCCNC(=O)CCCC[C@@H]3SC[C@@H]4NC(=O)N[C@@H]43)cc2Cl)cccc1-c1ccccc1 (some centres not stated)', 'AUC', 832),
  ('Cc1c(COc2cc(OCc3cccc(C#N)c3)c(CN3CCCCC3C(=O)NCCN)cc2Cl)cccc1-c1ccccc1 (configuration not stated)', 'AUC', 1830);
